assay: Growth inhibition of human leukemia cell by NCI-CLS assay; assay type: functional
# TGI listing for each entry below

structureNotation	TGI / µM
O=C1Nc2c(ccc3ccccc23)/C1=C\c1cccc(/C=C2/C(=O)Nc3c2ccc2ccccc32)n1	10
O=C1Nc2cccc(F)c2C1=Cc1cccc(C=C2C(=O)Nc3cccc(F)c32)n1	9.8
O=C1Nc2cccc(Cl)c2/C1=C\c1cccc(/C=C2/C(=O)Nc3cccc(Cl)c32)c1	9.8

###

# CC50 listing for each entry below
assay: Growth inhibition of human ovarian cancer cell by NCI-CLS assay; type: functional; settings: Cancer cell lines, read-out: LC50 (the source's name)

structureNotation	CC50 (µM)
O=C1Nc2cccc(I)c2/C1=C\c1cccc(/C=C2/C(=O)Nc3cccc(I)c32)n1	22.4
COc1ccc2c(c1)/C(=C\c1cc(C(C)(C)C)cc(/C=C3/C(=O)Nc4ccc(OC)cc43)c1O)C(=O)N2	61.7
COc1ccc(OC)c2c1NC(=O)/C2=C/c1cccc(/C=C2/C(=O)Nc3c(OC)ccc(OC)c32)n1	27.5
O=Cc1cccc(/C=C2/C(=O)Nc3c2ccc2ccccc32)n1	72.4
COc1cc2c(c(OC)c1OC)/C(=C\c1cccc(/C=C3/C(=O)Nc4cc(OC)c(OC)c(OC)c43)n1)C(=O)N2	5.7
O=C1Nc2cc(OC(F)(F)F)ccc2/C1=C\c1cccc(/C=C2/C(=O)Nc3cc(OC(F)(F)F)ccc32)n1	12.3
